test_summary: Tolerability in CD1 mice: hematology assays (Example 43)
Type: in vivo
conditions: 50 mg/kg s.c. twice per week for 6 weeks, blood
Strand notation (5' to 3'): a small letter for the sugar, then the base; units joined by * are phosphorothioate-linked, units joined directly phosphodiester-linked; [ ] holds rarer units or linkages, { } end groups; capitals alone tell only the bases. e = 2'-O-(2-methoxyethyl) (MOE); [5mC] = 5-methylcytosine; d = 2'-deoxy (DNA)
value_type: neutrophils (%)
# number only, unit % dropped from output

Before answering, review these 3 worked examples.
ISIS 449711: 3-8-3, 4-8-4, 2-10-2, 3-10-3 or 4-10-4 MOE microwalk gapmer (Table 46) (antisense eA*e[5mC]*dA*dG*dT*dT*dT*d[5mC]*dT*dG*dG*d[5mC]*eA*eG): 15
ISIS 449709: 3-8-3, 4-8-4, 2-10-2, 3-10-3 or 4-10-4 MOE microwalk gapmer (Table 46) (antisense eG*e[5mC]*eA*e[5mC]*dA*dG*dT*dT*dT*d[5mC]*dT*dG*dG*d[5mC]*eA*eG*eG*e[5mC]): 19
ISIS 449708: 3-8-3, 4-8-4, 2-10-2, 3-10-3 or 4-10-4 MOE microwalk gapmer (Table 46) (antisense eA*e[5mC]*eA*dG*dT*dT*dT*d[5mC]*dT*dG*dG*e[5mC]*eA*eG): 17

Which neutrophils reading was recorded for the substance ISIS 449710: 3-8-3, 4-8-4, 2-10-2, 3-10-3 or 4-10-4 MOE microwalk gapmer (Table 46) (antisense e[5mC]*eA*e[5mC]*dA*dG*dT*dT*dT*d[5mC]*dT*dG*dG*d[5mC]*eA*eG*eG) ?
15

Param item = ISIS 449707: 3-8-3, 4-8-4, 2-10-2, 3-10-3 or 4-10-4 MOE microwalk gapmer (Table 46) (antisense e[5mC]*eA*e[5mC]*eA*dG*dT*dT*dT*d[5mC]*dT*dG*dG*e[5mC]*eA*eG*eG) ; retrieve measured neutrophils.
11
